Test system: cotton
Experiment: Test C preemergence/postemergence greenhouse plant response rating 0 to 100
Type: in vivo, Gossypium hirsutum
Conditions: POSTEMERGENCE; Rate 4 g/ha
experimental.endpoint: Plant response rating (0 to 100), Cotton

INSERT INTO assay_data (molecule, experimental_endpoint, result_value) VALUES
  ('C#CCN1C(=O)COc2cc(F)c(-c3nn4c(c3Cl)CCCC4)cc21 [Compound 34]', 'Plant response rating (0 to 100), Cotton', 100),
  ('CCCN1C(=O)COc2cc(F)c(-c3nn4c(c3Cl)CCCC4)cc21 [Compound 32]', 'Plant response rating (0 to 100), Cotton', 100),
  ('COC(=O)c1cc(-c2nn3c(c2Cl)CCCC3)c(F)cc1Cl [Compound 43]', 'Plant response rating (0 to 100), Cotton', 90),
  ('COC(=O)C(C)Oc1cc(-c2nn3c(c2Cl)CCCC3)c(F)cc1Cl (stereo not shown) [Compound 28]', 'Plant response rating (0 to 100), Cotton', 100),
  ('C#CC(C)Oc1cc(-c2nn3c(c2Br)CCCC3)c(F)cc1Cl (stereo not shown) [Compound 66]', 'Plant response rating (0 to 100), Cotton', 70),
  ('CC(C)N1C(=O)COc2cc(F)c(-c3nn4c(c3Cl)CCCC4)cc21 [Compound 31]', 'Plant response rating (0 to 100), Cotton', 100),
  ('CC(C)Oc1cc(-c2nn3c(c2Br)CCCC3)c(F)cc1Cl [Compound 38]', 'Plant response rating (0 to 100), Cotton', 80);
